target of assay: pooled human IgG
measured quantity: Enzyme Activity Endpoint Assay (purified): Fc (ng/µL)
Form entry: value (ng/µL) — number only.

Respond only with Enzyme Activity Endpoint Assay (purified): Fc recorded for PRT-572 (protein) MANQEIRYSEATPSHITSVWTKGVTPPTQFIQNEDVLHAPYIANQGWYDITKTFNGKDDLLCGAATAGNMLHWWFDQNKEQIENYLKKHPEKQKINFNGEQMFDVKEAIDTKDSQTDSALFSYFKDKAFPYLSTKHLGVFPDHVIDMFINGYRLSLTNHGPTPVKEQTKDPRGGIFDAVFTRGDQSKLLTSRHDFKEKTLNEISQLIKQELTEGKALGLSHTYANVRINHVINLWGADFNAEGNLEAIYVTDSDSNASIGMKKYYVGVNSAGKVAISAKEIEGDNIGAQVLGLFTLSTGQDIWQQTNLEHHHHHH
478

Respond only with Enzyme Activity Endpoint Assay (purified): Fc recorded for PRT-66 (protein) MANQEIRYSEVTPYHVTSVWTKGVTPPANFTQGEDVFHAPYVANQGWYDITKTFNGKDDLLCGAATAGNMLHWWFDQNKDYIKRYLEEHPEKQKINFNGEQMFDVKEAIDTKNHQLDSKLFEYFKEKAFPYLSTKHLGVFPDHVIDMFINGYRLSLTNHGPTPVKEGSKDPRGGIFDAVFTRGDQSKLLTSRHDFKEKNLKEISDLIKKELTEGKALGLSHTYANVRINHVINLWGADFDSNGNLKAIYVTDSDSNASIGMKKYFVGVNSAGKVAISAKEIKEDNIGAQVLGLFTLSTGQDSWNQTN
115
